- TESTED_ON: T1, HLA-A*02:01 (human)
- T1 construct: whole, on cells; Empty class I molecule on TAP-deficient T2-A24 cells; detected with anti-HLA-A02 antibody BB7.2
- TEST_SUMMARY: T2-A24 MHC class I stabilization, flow cytometry, anti-HLA-A02 BB7.2-FITC, peptide 100 ug/mL
The reader will find reported MFI (solvent ratio) values listed item by item below.

Example entries and their recorded answers appear below.
Q. What MFI (solvent ratio) value was documented for this binder, PLAIAAYWAL [As211_10] ?
A. 1.1 ratio to solvent

Q. Continue with HFCTTPSSIL [As145_10]
A. 1 ratio to solvent

Q. Continue with AFYVEHGAIF [As192_10]
A. 1.1 ratio to solvent

***
Q. What MFI (solvent ratio) value was documented for this binder, DFYHSLFTV [As368_9] ?
A. 1 ratio to solvent

Q. Continue with GYWLPSYKL [As63_9]
A. 1.1 ratio to solvent
